Assay: qHTS RealTime-Glo MT Cell Viability Assay in HepG2 cells - 16 hour (AID 1224885); further: nearly all actives have a fitted effect of over 50% in size
Settings: RealTime-Glo luminescence; series mostly up to 76.8 µM
Inconclusive results are not listed. Activity calls are given as the source filed them. The call rests on the fitted dose curve; in most records, active means well fitted cell-killing curve with a large enough effect in the repeat runs; inconclusive means weak or mixed curves; inactive means flat fitted curve, though single readings scatter.
experimental readout: activity change, negative = cytotoxic

The recorded activity change, negative = cytotoxic for entry CC(C(=O)O)c1ccc(/C=C2\CCCCC2=O)cc1 (centres undefined) equals inactive

Recorded result, CCc1ccc(C(=O)C(C)CN2CCCCC2)cc1 (centres undefined) , activity change, negative = cytotoxic: inactive

Given item FC1(F)C(F)(F)C(F)(F)C2(F)C(F)(C1(F)F)C(F)(F)C(F)(F)C1(F)C(F)(F)C(F)(F)C(F)(F)C(F)(F)C12F (centres undefined) , the value recorded as its activity change, negative = cytotoxic is inactive

Entry Cc1ccc(Cl)c(OCC(O)CNC(C)(C)C)c1 (centres undefined) ; activity change, negative = cytotoxic = inactive
